assay: Pharmacokinetic experiment, IV in rats; format: in vivo, rat; conditions: rat, plasma; male JVC/CAC rats, 1 mg/kg IV; read-out: volume of distribution
Where a name gives a salt, the structure may show the parent alone.
OBSERVABLE: Vd (L/kg)
Reply with just the number (in L/kg).

molecule=CC(C)CCNCc1ccc(Oc2cccc(O)c2)c(F)c1.Cl assay_result=10

# evaluate next
Data request: What does the record list as Vd for CC(C)CCNCc1ccc(Oc2ccc(C(N)=O)c(O)c2)c(F)c1 [Example 1A, hydrochloride salt] ?
Data returned: 2

* * *

Reported Ki values for a set of compounds
target: delta opioid receptor (Homo sapiens); assay: GTPγ[35S] binding assay at delta opioid receptor (antagonist vs BW-373U86); conditions: average Ki; membranes, challenged with BW-373U86 (1 nM)
Sequence (P41143 whole entry): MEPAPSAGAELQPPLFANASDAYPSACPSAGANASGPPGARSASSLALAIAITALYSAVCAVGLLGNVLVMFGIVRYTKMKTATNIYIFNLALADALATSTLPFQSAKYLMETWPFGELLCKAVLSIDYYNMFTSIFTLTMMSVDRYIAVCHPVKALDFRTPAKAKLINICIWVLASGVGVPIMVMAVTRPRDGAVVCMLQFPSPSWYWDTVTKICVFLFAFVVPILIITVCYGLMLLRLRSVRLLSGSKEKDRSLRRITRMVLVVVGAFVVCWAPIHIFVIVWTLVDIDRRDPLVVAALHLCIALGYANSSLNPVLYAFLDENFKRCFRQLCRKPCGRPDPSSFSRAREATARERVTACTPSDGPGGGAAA
Counter-ions that a name gives are not always drawn.

Sample records with Ki:
compound="NC(=O)c1ccc(Oc2ccc(CNCC3CCCO3)cc2F)cc1O (stereo not shown)" assay_result="3.25 nM"
compound="CC(C)CCNCc1ccc(Oc2cccc(O)c2)c(F)c1.Cl [Example 2A, hydrochloride salt]" assay_result="25.4 nM"
compound=NC(=O)c1ccc(Oc2c(F)cc(CNC[C@@H]3CCCO3)cc2F)cc1O assay_result="4.87 nM"

Continue with the compound presented below.
Data request: Please give the measured Ki for this compound: CC(C)CCNCc1ccc(Oc2ccc(C(N)=O)c(O)c2)c(F)c1 [Example 1A, hydrochloride salt]
Data returned: 0.64 nM
